# target-desc: Mitogen-activated protein kinase kinase kinase 11 (Homo sapiens)
# Sequence (Q16584 whole entry): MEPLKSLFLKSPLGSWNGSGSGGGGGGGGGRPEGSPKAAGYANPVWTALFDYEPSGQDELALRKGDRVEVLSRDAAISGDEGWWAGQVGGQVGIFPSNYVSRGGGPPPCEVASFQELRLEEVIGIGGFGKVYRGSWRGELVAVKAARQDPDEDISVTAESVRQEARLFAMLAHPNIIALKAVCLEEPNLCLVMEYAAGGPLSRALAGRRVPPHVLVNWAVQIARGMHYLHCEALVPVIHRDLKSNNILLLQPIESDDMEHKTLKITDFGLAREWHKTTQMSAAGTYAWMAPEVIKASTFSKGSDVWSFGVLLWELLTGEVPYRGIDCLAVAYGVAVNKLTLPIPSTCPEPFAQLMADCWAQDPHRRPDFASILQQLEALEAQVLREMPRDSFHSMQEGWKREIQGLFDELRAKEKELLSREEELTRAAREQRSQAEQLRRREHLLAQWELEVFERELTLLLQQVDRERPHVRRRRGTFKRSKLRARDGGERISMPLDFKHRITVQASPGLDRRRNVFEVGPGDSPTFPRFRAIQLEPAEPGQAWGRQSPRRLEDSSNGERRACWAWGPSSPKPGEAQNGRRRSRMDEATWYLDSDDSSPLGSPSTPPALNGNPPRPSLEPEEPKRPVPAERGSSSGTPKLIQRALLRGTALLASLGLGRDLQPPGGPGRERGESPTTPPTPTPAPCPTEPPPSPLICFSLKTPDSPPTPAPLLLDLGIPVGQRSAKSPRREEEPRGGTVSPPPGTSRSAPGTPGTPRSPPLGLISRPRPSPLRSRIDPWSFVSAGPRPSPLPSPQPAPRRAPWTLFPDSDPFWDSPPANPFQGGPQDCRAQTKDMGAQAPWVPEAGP
# assay-procedure: Inhibition of GST-MLK3 expressed in baculovirus
result-type: IC50 (µM)

# compound, IC50, µM
data = [
    ("O=C1NCc2c3c(c4[nH]c5ccccc5c4c21)CCc1ccccc1-3", 0.022),
]

(I) O=C1NCc2c3c(c4sc5ccccc5c4c21)Cc1ccccc1-3
(II) O=C1NCc2c1c1c3ccccc3[nH]c1c1oc3ccccc3c21
(III) O=C1NCc2c1c1c3ccccc3[nH]c1c1sc3ccccc3c21
(IV) O=C1NCc2c1c1c(c3[nH]c4ccccc4c23)Cc2ccccc2-1
(V) O=C1NC(=O)c2c1c1c(c3[nH]c4ccccc4c23)CCc2ccccc2-1
Input: Rank by IC50 (largest to smallest). Your task in answering is to list the labels in the requested order.
Output: II, III, I, IV, V

(A) O=C1NCc2c1c1c(c3sc4ccccc4c23)Cc2ccccc2-1
(B) O=C1NCc2c3c(c4[nH]c5ccccc5c4c21)Cc1ccccc1-3
(C) O=C1NCc2c1c1c(c3c2-c2ccccc2C3)Cc2ccccc2-1
(D) O=C1NCc2c1c1c3ccccc3sc1c1[nH]c3ccccc3c21
(E) O=C1NCc2c1c1c3ccccc3oc1c1[nH]c3ccccc3c21
Input: // ascending sort on recorded IC50 Lab note: final answer is the ordered label list.
Output: D, B, A, C, E
(D: 0.026 µM, B: 0.087 µM, A: 0.157 µM, C: 0.277 µM, E: 1.11 µM)

====

# target-desc: Protein kinase C (PKC)
# assay-procedure: Inhibition of PKC
# Assay type: protein assay, Homo sapiens
result-type: IC50 (nM)

# compound, target-desc, unit-descriptor, IC50
measured = [
    ("O=C1NCc2c1c1c(c3[nH]c4ccccc4c23)Cc2ccccc2-1", "Protein kinase C (PKC)", "nM", 1196),
]

(A) O=C1NC(=O)c2c1c1c(c3[nH]c4ccccc4c23)CCc2ccccc2-1
(B) O=C1NCc2c3c(c4[nH]c5ccccc5c4c21)CCc1ccccc1-3
Input: Kindly identify which of A and B has the larger recorded IC50 value. Indicate your choice by writing its label.
Output: B

====

# target-desc: UniProt P32738
# Sequence (P32738 whole entry): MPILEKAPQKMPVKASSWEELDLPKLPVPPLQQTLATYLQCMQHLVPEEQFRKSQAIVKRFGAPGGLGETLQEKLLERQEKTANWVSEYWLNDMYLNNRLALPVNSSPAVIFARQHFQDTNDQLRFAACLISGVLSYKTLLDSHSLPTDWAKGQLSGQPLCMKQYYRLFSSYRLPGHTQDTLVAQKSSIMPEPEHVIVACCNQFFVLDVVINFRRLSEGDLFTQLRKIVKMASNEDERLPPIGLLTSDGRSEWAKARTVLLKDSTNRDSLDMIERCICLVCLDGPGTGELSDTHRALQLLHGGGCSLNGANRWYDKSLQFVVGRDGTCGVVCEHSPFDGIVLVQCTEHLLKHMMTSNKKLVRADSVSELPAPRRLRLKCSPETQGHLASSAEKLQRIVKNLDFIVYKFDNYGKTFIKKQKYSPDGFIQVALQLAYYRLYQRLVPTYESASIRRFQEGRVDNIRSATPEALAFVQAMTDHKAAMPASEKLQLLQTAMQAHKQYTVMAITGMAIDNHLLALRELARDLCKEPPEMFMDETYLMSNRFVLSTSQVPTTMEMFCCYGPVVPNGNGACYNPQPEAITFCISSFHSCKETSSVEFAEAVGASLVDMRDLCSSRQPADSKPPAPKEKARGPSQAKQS
# assay-procedure: Enhancement of choline acetyltransferase activity in embryonic rat spinal cord at 300 nM
Calls of active or inactive are those of the source. The rule behind the calls is not given here.
result-type: Activity

# annotated cases, reported Activity shown
# compound, Activity
rows = [
    ("O=C1NCc2c1c1c3ccccc3oc1c1[nH]c3ccccc3c21", "inactive"),
    ("O=C1NC(=O)c2c1c1c3ccccc3[nH]c1c1oc3ccccc3c21", "inactive"),
    ("O=C1NC(=O)c2c1c1c(c3[nH]c4ccccc4c23)CCc2ccccc2-1", "178%"),
    ("O=C1NCc2c1c1c3ccccc3[nH]c1c1oc3ccccc3c21", "inactive"),
    ("O=C1NCc2c1c1c3ccccc3sc1c1[nH]c3ccccc3c21", "138%"),
]

Input: GET /values?readout=Activity&item= O=C1NCc2c3c(c4[nH]c5ccccc5c4c21)CCc1ccccc1-3
Output: 171%

Input: Value lookup for Activity; key = O=C1NCc2c3c(c4[nH]c5ccccc5c4c21)Cc1ccccc1-3
Output: 155%

====

# target-desc: Mitogen-activated protein kinase kinase kinase 9 (Homo sapiens)
# Sequence (P80192 whole entry): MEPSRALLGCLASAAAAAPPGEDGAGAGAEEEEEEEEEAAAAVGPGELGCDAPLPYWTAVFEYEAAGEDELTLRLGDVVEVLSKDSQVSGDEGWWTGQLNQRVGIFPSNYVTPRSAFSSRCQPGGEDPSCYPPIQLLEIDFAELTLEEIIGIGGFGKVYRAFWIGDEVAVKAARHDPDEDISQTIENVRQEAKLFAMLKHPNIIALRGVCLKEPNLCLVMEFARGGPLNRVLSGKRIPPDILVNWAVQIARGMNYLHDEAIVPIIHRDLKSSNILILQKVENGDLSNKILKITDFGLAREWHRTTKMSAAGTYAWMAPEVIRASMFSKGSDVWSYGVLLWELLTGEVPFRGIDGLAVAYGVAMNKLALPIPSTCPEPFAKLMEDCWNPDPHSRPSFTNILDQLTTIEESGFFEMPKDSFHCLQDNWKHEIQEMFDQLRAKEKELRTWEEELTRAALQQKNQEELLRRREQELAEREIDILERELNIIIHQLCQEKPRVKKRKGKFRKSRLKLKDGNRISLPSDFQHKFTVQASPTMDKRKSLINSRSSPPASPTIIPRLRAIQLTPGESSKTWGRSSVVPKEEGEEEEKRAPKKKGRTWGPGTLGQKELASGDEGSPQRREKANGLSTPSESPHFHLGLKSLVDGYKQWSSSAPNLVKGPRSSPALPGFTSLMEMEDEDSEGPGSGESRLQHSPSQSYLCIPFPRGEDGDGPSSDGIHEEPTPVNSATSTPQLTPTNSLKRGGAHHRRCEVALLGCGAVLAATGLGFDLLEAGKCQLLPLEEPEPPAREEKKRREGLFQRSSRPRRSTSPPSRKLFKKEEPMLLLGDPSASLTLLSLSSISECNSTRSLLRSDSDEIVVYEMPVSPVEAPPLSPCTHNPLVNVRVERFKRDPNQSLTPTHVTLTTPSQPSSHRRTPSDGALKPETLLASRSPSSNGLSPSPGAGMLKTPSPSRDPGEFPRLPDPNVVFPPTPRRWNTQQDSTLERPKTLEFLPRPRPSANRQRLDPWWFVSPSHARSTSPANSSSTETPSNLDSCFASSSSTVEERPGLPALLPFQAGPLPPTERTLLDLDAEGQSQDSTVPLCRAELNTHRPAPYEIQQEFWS
# assay-procedure: Inhibition of GST-MLK1 expressed in baculovirus
result-type: IC50 (nM)

# compound, IC50, nM
data = [
    ("O=C1NCc2c3c(c4[nH]c5ccccc5c4c21)CCc1ccccc1-3", 46),
    ("O=C1NCc2c3c(c4sc5ccccc5c4c21)Cc1ccccc1-3", 615),
]

(a) O=C1NCc2c3c(c4[nH]c5ccccc5c4c21)Cc1ccccc1-3
(b) O=C1NCc2c1c1c3ccccc3sc1c1[nH]c3ccccc3c21
Input: # min-compare on IC50 between a and b Answer by quoting the chosen item's label.
Output: b
